target: ADAMTS4 (Homo sapiens (Human), UniProt O75173); assay: Selectivity assay for ADAMTS-7 modulators: ADAMTS4 (FRET substrate); assay type: biochemical; conditions: ADAMTS4 (R&D 4307-AD) 50 nM, substrate Dabcyl-EEVKAKVQPY-Glu(Edans)-NH2 1 μM, 120 min, 32° C.
Sequence (O75173 213-685): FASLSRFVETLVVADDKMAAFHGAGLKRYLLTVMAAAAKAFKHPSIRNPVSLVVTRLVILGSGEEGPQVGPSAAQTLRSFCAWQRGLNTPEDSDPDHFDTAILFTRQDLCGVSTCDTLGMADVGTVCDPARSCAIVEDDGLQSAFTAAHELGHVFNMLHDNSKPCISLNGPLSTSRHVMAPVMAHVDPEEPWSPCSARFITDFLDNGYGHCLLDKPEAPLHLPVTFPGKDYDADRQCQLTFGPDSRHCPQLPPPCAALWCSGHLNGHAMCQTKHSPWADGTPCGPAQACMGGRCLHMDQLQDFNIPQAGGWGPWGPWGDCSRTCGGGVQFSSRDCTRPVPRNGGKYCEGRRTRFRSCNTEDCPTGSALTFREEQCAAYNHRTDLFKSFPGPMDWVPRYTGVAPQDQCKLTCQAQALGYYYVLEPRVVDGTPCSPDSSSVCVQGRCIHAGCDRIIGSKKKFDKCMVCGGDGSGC
reported-endpoint: pIC50
One number for each entry, as −log10 of the molar value.

Some compounds with known pIC50 results, for comparison:
compound="Cc1nocc1C1(CNC(=O)c2ccccc2-c2ccc(C(F)(F)F)nc2)NC(=O)NC1=O (racemic) [Example 41]" meas_value=4.52
compound="CC(C)C1(CNC(=O)c2cc(F)c(F)cc2-c2ccc(C(F)(F)F)cc2)NC(=O)NC1=O (single isomer, unassigned; ent-4) [Example 213]" meas_value=4.52
compound="O=C1NC(=O)[C@](CNC(=O)c2ccc(Cl)c(F)c2-c2ccc(C(F)(F)F)cc2)(C2CC2)N1 [Example 93]" meas_value=5.47

Moving on to another compound below.
Lookup: What measured pIC50 is associated with Cc1cnn(C)c1C1(CNC(=O)c2ccccc2-c2ccc(C(F)(F)F)cc2)NC(=O)NC1=O (racemic) [Example 61] on ADAMTS4 (Homo sapiens (Human), UniProt O75173)?
Found: 5.13
